Reference source: patent US12378203B2

- Tested on: mouse B16F10 cells
- assay.info: Protection of melanocytes from tunicamycin (ER stress) induced cell death, MTT assay, B16F10
- Type: cell-based
- assay.context: Mus musculus, B16-F10, different concentrations of compound along with tunicamycin, GraphPad Prism 7
EC50 strictly under 10 µM means T; at 10 µM or over means F.

O=C(NCCc1c[nH]c(-c2ccc(Cl)cc2Cl)n1)c1cc(F)cc(F)c1 [Compound 071] :: F
CCCCCCCC(=O)NCCc1c[nH]c(-c2ccc(Cl)cc2)n1 [Compound 068] :: F
CN1CCN(C(=O)Cc2cn(C)c(-c3ccc(Cl)cc3)n2)CC1 [Compound 021] :: F
O=C(NCCc1c[nH]c(-c2ccc(Cl)cc2)n1)c1ccc(C(F)(F)F)cc1 [Compound 053] :: F
CC(C)(C)CC(=O)NCCc1c[nH]c(-c2ccc(Cl)cc2)n1 [Compound 025] :: T
CCCC(=O)NCCc1c[nH]c(-c2ccc(Cl)cc2)n1 [Compound 002] :: T

// query Below 10 µM on EC50? Entry O=C(NCCc1c[nH]c(-c2ccc(Cl)cc2Cl)n1)c1ccc(C(F)(F)F)cc1 [Compound 066]
// result T

// query How about Cn1cc(CC(=O)NCCc2ccc(F)cc2)nc1-c1ccc(Cl)cc1 [Compound 022] ?
// result F

// query Now give it for CCC(C)(C)C(=O)NCCc1c[nH]c(-c2ccc(Cl)cc2)n1 [Compound 026] too.
// result T

// query Try the compound CCCCCC(=O)NCCc1c[nH]c(-c2ccc(Cl)cc2)n1 [Compound 067]
// result T

// query Next: O=C(NCCc1c[nH]c(-c2ccc(Cl)cc2Cl)n1)c1ccc(F)cc1 [Compound 070]
// result F
